assay: in vivo; details: CD1 nude, mouse, 0.5 nmol/mouse, total radioactivity, Muscle uptake

Molecule	tissue uptake at 48 h [%ID/g]
Cc1ccc(CCCC(=O)NCCOCCOCCOCCOCCC(=O)NCCCC[C@H](NC(=O)CN2CCN(CC(=O)O)CCN(CC(=O)O)CCN(CC(=O)O)CC2)C(=O)N[C@@H](CC(=O)O)C(=O)N[C@@H](CC2CCCCC2)C(=O)N[C@@H](Cc2ccccc2)C(=O)N[C@H](CO)C(=O)N[C@H](CCCNC(=N)N)C(=O)N[C@@H](Cc2ccc(O)cc2)C(=O)N[C@@H](CC(C)C)C(=O)N[C@@H](Cc2c[nH]c3ccccc23)C(=O)N[C@@H](CO)C(N)=O)cc1 [[^177Lu]Lu-uPAR-11, metal not drawn]	0.04
